# Test system: rodent lifetime carcinogenesis bioassay, tumor incidence TD50
# Test method notes: carcinogenic potency in animals, long-term in vivo studies, CPDB compilation (AID 1745844)
# Condition info: rat; strain Wistar; females; in feed; site: liver; lesion: cystadenoma; dosed 75 weeks; study length 75 weeks
Readout type: TD50 (mg/kg/day)
The answer is to be given in mg/kg/day; state only the numeric part.

Write down TD50 measured for item COc1cc2c(cc1N)oc1ccccc12
205

---

Each entry below carries its reported TD50.
# Test system: rodent lifetime carcinogenesis bioassay, tumor incidence TD50
# Test method notes: carcinogenic potency in animals, long-term in vivo studies, CPDB compilation (AID 1745844)
# Condition info: rat; strain Sprague-Dawley; both sexes; in drinking water; site: any site (literature study); lesion: malignant tumor; dosed 104 weeks; study length 104 weeks

> print(dat)
    compound.smiles                                 tested.on  readout.type      test.value
1  C[C@H]1CCCCN1N=O  rodent lifetime carcinogenesis bioassay, tumor incidence TD50          TD50  13.2 mg/kg/day

State TD50 on rodent lifetime carcinogenesis bioassay, tumor incidence TD50. Entry: C[C@@H]1CCCCN1N=O
20.4 mg/kg/day
